Conditions: PAMPA
Where a SMILES comes first, the peptide text is derived from it. [ ]: non-standard residue; d: D form. NMeL = CN[C@@H](CC(C)C)C(=O)O; dNMeL = CN[C@H](CC(C)C)C(=O)O; NMeA = CN[C@@H](C)C(=O)O
Attribute: PAMPA_R3
// no unit, no text: just the number

- CC[C@@H](C)[C@H]1NC(=O)[C@@H](CC(C)C)NC(=O)[C@H](C(C)C)NC(=O)[C@@H](CC(C)C)N(C)C(=O)[C@@H]2CCCN2C(=O)[C@H](C)NC(=O)[C@H](CC(C)C)N(C)C(=O)[C@H]2CCCN2C(=O)[C@H](C)N(C)C(=O)[C@@H](CC(C)C)N(C)C(=O)[C@@H]2CCCN2C1=O [Design D11.5] (cyclo(AP[dNMeL]V[dL][dI]P[dNMeL][NMeA][dP][NMeL])): 3.12E-06

Next compound, please.
What does the record list as PAMPA_R3 for CC[C@H](C)[C@@H]1NC(=O)[C@@H](CC(C)C)N(C)C(=O)[C@H](CC(C)C)N(C)C(=O)[C@H](C)NC(=O)[C@H]2CCCN2C(=O)[C@@H]2CCCN2C(=O)[C@@H]2CCCN2C(=O)[C@@H](C(C)C)NC1=O [Design D8.28, PRO DPRO ALA *LEU *DLEU ILE DVAL PRO] (cyclo(A[NMeL][dNMeL]I[dV]PP[dP])) ?
7.65E-07
